- STUDY_TARGET: Carbonic anhydrase 5A, mitochondrial (Homo sapiens, UniProt P35218)
- Sequence (P35218 whole entry): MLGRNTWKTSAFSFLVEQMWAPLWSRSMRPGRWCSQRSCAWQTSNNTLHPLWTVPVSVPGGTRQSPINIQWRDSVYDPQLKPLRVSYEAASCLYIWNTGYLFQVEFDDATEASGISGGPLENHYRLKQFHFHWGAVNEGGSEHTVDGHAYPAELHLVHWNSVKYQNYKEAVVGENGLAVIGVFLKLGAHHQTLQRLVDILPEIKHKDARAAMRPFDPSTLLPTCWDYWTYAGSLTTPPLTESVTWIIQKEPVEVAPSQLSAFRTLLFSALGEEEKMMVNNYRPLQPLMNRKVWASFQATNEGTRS
MEASUREMENT_LABEL: Kd (nM)
Give your result in nM as a bare value.

Consider the molecule CC1(C)O[C@@H]2[C@@H](CO[C@@]3(COS(N)(=O)=O)OC(C)(C)O[C@@H]23)O1 [TOPIRAMATE] . State its measured Kd.
25.4
